Target: T1, EsCas13d, nuclease-dead (Eubacterium siraeum, UniProt B0MS50, R295A;H300A;R849A;H854A)
T1 sequence: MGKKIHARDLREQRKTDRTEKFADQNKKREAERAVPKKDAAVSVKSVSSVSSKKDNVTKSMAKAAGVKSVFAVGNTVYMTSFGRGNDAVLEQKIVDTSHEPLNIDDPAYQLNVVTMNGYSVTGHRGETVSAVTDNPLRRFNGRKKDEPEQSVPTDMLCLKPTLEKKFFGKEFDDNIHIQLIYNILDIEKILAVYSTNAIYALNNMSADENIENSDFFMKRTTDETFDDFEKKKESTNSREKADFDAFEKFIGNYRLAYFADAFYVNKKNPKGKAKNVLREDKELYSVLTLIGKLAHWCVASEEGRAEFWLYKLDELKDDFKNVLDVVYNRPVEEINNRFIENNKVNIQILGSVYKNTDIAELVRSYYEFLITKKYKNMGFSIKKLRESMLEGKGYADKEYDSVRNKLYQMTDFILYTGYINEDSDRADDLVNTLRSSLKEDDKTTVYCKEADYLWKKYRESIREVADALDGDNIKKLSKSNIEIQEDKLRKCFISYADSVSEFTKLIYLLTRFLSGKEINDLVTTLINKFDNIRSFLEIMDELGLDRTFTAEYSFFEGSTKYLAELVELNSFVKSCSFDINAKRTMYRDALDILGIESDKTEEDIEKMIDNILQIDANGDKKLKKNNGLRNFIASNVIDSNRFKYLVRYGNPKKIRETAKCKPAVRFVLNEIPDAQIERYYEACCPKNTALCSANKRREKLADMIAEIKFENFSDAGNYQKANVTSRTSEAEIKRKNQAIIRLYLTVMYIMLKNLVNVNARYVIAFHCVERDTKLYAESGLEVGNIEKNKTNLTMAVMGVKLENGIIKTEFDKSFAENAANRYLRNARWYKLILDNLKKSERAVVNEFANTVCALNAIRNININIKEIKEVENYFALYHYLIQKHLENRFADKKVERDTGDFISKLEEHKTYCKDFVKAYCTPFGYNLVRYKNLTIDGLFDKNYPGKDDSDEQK
Test: crRNA (strand 1, pre-loaded); Mg2+; 40 mM Tris-HCl pH 7.5, 150 mM NaCl, 6 mM MgCl2, 1 mM DTT, 0.1% Tween-20, 0.2 mg/ml BSA; 25 C; 10 min per concentration, then washed
Conditions: tags: His6-TwinStrep-SUMO cleaved; N-terminal SNAP kept (SNAP-Surface 488); label: 3' end held by stalled T7 RNA polymerase
READOUT_KIND: Kd (nM)
Please give a number only; it is taken to be in nM.

Name the recorded Kd of the binder listed here: target 3 insU 3' of 9,insG 3' of 9 (mixed) RNA 1: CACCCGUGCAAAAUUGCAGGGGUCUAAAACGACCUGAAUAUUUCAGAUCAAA RNA 2: GGGAAUGGAUCCACAUCUACGAAUUCGUUUUUGAUCUGAAAUAUGUUCAGGUCUGCAGAUCGGAAGAGCACACGU
89.5

Name the recorded Kd of the binder listed here: target 1 insG 3' of 9,insG 3' of 1 (mixed) RNA 1: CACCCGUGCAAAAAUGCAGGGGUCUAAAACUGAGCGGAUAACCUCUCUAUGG RNA 2: GGGAAUGGAUCCACAUCUACGAAUUCGUACCAUAGAGAGGUUAGUCCGCUCAGCCGAGAUCGGAAGAGCACACGU
19.2

Name the recorded Kd of the binder listed here: target 2 MT 5'PFS UUU 3'PFS CCU (mixed) RNA 1: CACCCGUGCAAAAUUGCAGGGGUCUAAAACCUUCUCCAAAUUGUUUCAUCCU RNA 2: GGGAAUGGAUCCACAUCUACGAAUUCUUUAGGAUGAAACAAUUUGGAGAAGCCUAGAUCGGAAGAGCACACGU
52

Name the recorded Kd of the binder listed here: target 1 A1U,G15C (mixed) RNA 1: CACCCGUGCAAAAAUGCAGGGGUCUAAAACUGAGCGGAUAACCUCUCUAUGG RNA 2: GGGAAUGGAUCCACAUCUACGAAUUCGUACCAUAGACAGGUUAUCCGCUCUCCGAGAUCGGAAGAGCACACGU
56

Name the recorded Kd of the binder listed here: target 1 insA 3' of 21,insA 3' of 3 (mixed) RNA 1: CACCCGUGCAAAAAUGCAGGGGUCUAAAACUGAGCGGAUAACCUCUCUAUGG RNA 2: GGGAAUGGAUCCACAUCUACGAAUUCGUACCAAUAGAGAGGUUAUCCGCUACACCGAGAUCGGAAGAGCACACGU
12.2

Name the recorded Kd of the binder listed here: target 3 insA 3' of 22,insA 3' of 3 (mixed) RNA 1: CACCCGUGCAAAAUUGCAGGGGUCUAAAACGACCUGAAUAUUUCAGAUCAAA RNA 2: GGGAAUGGAUCCACAUCUACGAAUUCGUUUAUUGAUCUGAAAUAUUCAGGAUCUGCAGAUCGGAAGAGCACACGU
22.2

Name the recorded Kd of the binder listed here: target 2 MT 5'PFS CAU 3'PFS UCC (mixed) RNA 1: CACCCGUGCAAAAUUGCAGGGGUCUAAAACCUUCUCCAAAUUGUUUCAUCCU RNA 2: GGGAAUGGAUCCACAUCUACGAAUUCCAUAGGAUGAAACAAUUUGGAGAAGUCCAGAUCGGAAGAGCACACGU
8.1

Name the recorded Kd of the binder listed here: target 1 C2A,C4G (mixed) RNA 1: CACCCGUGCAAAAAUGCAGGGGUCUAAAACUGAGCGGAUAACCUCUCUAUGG RNA 2: GGGAAUGGAUCCACAUCUACGAAUUCGUACCAUAGAGAGGUUAUCCGGUAACCGAGAUCGGAAGAGCACACGU
12

Name the recorded Kd of the binder listed here: target 1 insU 3' of 15,insG 3' of 9 (mixed) RNA 1: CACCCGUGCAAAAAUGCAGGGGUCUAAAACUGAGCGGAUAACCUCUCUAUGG RNA 2: GGGAAUGGAUCCACAUCUACGAAUUCGUACCAUAGAGUAGGUUAGUCCGCUCACCGAGAUCGGAAGAGCACACGU
13

Name the recorded Kd of the binder listed here: target 2 MT 5'PFS ACG 3'PFS ACA (mixed) RNA 1: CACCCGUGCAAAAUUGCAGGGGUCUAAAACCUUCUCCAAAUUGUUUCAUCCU RNA 2: GGGAAUGGAUCCACAUCUACGAAUUCACGAGGAUGAAACAAUUUGGAGAAGACAAGAUCGGAAGAGCACACGU
9.7

Name the recorded Kd of the binder listed here: target 1 MT 5'PFS GGA 3'PFS GGU (mixed) RNA 1: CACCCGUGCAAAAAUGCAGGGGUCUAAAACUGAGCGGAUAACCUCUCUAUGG RNA 2: GGGAAUGGAUCCACAUCUACGAAUUCGGACCAUAGAGAGGUUAUCCGCUCAGGUAGAUCGGAAGAGCACACGU
45

Name the recorded Kd of the binder listed here: target 1 MT 5'PFS CUU 3'PFS CGC (mixed) RNA 1: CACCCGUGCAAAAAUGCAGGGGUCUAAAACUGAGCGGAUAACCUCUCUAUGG RNA 2: GGGAAUGGAUCCACAUCUACGAAUUCCUUCCAUAGAGAGGUUAUCCGCUCACGCAGAUCGGAAGAGCACACGU
18

Name the recorded Kd of the binder listed here: target 2 MT 5'PFS AUU 3'PFS UGU (mixed) RNA 1: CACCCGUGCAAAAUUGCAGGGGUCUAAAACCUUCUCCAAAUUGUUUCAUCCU RNA 2: GGGAAUGGAUCCACAUCUACGAAUUCAUUAGGAUGAAACAAUUUGGAGAAGUGUAGAUCGGAAGAGCACACGU
13.5

Name the recorded Kd of the binder listed here: target 1 insA 3' of 10,insG 3' of 8 (mixed) RNA 1: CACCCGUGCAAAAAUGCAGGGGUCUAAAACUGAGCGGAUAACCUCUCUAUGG RNA 2: GGGAAUGGAUCCACAUCUACGAAUUCGUACCAUAGAGAGGUUAAUGCCGCUCACCGAGAUCGGAAGAGCACACGU
10.1

Name the recorded Kd of the binder listed here: target 1 insG 3' of 7,insU 3' of 6 (mixed) RNA 1: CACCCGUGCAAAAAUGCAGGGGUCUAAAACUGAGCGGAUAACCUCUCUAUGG RNA 2: GGGAAUGGAUCCACAUCUACGAAUUCGUACCAUAGAGAGGUUAUCGCUGCUCACCGAGAUCGGAAGAGCACACGU
8.24
